system: LCK; settings: concentration: 1 μM, replicates: in singlicate; n = 1;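 further: KINOMEscan kinase panel screen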
# %Inh per record follows
Number in %, nothing else.

Example compounds with recorded %Inh:
>  <COMPOUND>
Nc1nc(-c2ccc3c(N)n[nH]c3c2)cc(N2CCCCC2)n1 [GSK2228768]

>  <%Inh, %>
3

$$$$
>  <COMPOUND>
CSc1nn2c(=O)cc(N3CCOCC3)nc2n1Cc1cccc(Cl)c1Cl [GSK2347225]

>  <%Inh, %>
31

$$$$
>  <COMPOUND>
Cl.c1ccc(Cn2ncc3cc(Nc4ncnc5ccccc45)ccc32)cc1 [GW273749]

>  <%Inh, %>
15

$$$$
>  <COMPOUND>
CN1CCC(n2cnc(-c3ccc(F)cc3)c2-c2ccnc(NC3CCNCC3)n2)CC1 [SB-229482]

>  <%Inh, %>
0

$$$$
>  <COMPOUND>
CCc1nc(-c2cccc(C)c2)c(-c2ccnc(NC(=O)c3ccccc3)c2)s1

>  <%Inh, %>
0

$$$$

Given the compound COC(=O)c1c(-c2ccccc2)c2cc(Cl)ccc2c(=O)n1Cc1ccc(S(C)(=O)=O)cc1 , what is its reported %Inh?
13

Given the compound Cc1ccc(C)c(NC(=O)NCCNc2ccnc(Nc3ccc(F)cc3)n2)c1 [GSK1379878] , what is its reported %Inh?
3
